Give pIC50 for every item shown.
# study_target: NLRP3 inflammasome (Homo sapiens, UniProt Q96P20)
# Sequence (Q96P20 whole entry): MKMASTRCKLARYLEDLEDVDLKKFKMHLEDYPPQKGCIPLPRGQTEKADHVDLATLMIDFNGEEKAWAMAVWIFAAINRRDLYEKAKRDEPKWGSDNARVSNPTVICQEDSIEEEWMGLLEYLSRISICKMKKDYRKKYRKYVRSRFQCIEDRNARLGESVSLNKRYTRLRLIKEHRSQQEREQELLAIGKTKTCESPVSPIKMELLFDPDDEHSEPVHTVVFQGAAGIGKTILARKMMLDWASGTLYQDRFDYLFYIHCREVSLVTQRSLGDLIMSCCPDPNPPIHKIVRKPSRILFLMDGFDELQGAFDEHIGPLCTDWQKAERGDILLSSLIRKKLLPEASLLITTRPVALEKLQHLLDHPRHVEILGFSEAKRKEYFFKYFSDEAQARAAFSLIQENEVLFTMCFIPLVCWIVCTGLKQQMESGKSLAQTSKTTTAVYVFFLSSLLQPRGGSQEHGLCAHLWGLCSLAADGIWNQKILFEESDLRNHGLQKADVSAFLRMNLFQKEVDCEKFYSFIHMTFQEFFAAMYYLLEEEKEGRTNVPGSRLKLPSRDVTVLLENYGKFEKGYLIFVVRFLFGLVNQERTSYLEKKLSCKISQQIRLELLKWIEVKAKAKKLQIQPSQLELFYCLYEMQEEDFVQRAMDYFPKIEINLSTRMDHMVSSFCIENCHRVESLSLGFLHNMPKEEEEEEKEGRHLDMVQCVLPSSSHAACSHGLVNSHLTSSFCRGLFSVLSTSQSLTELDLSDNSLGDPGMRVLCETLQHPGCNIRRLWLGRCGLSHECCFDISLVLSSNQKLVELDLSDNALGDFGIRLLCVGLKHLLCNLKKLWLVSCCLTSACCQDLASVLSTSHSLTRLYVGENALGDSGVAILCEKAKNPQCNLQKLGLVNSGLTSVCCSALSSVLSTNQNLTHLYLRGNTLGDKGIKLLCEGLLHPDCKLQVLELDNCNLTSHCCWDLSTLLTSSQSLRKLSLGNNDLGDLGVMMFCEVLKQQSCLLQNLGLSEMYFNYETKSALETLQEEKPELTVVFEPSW
# method_description: NLRP3 inflammasome activation assay, IL-1 beta release, human monocyte-like cells, Nigericin stimulation
# Type: cell-based
# Parameters: endogenous in cells
# particulars: PMA-differentiated, LPS-primed human monocyte-like cells; Nigericin 3.75 μM 3 h; IL-1β by AlphaLISA
pIC50: −log10 of the molar value.

What value of pIC50 has been recorded for this entry: COc1ccc2c(c1)S(=O)(NC(=O)Nc1c3c(cc4c1CCC4)CCC3)=NC2=O (single isomer, unassigned) [Example 48]
> 6.00

Any idea what pIC50 was measured for O=C(N=S1(=O)NC(=O)c2ccc(C(F)(F)F)cc21)Nc1c2c(cc3c1CCC3)CCC2 (stereo not drawn) ?
5.00 to 6.00

// query pIC50 value for entry O=C(N=S1(=O)NC(=O)c2cccnc21)Nc1c2c(cc3c1CCC3)CCC2 (stereo not drawn) [Example 2]
5.00 to 6.00

# lookup: pIC50 of Cc1cccc2c1C(=O)N=S2(=O)NC(=O)Nc1c2c(cc3c1CCC3)CCC2 (single isomer, unassigned) [Example 47]
5.00 to 6.00

Which pIC50 reading was recorded for the molecule O=C(Nc1c2c(cc3c1CCC3)CCC2)NS1(=O)=NC(=O)c2ccccc2C1 (stereo not drawn) [Example 3] ?
5.00 to 6.00

What does the data say about its pIC50? Entry: COc1cc(-c2ccc3c(c2NC(=O)NS2(=O)=NC(=O)c4sccc42)CCC3)ccn1 (single isomer, unassigned) [Example 53]
> 6.00

Form field: reported pIC50 of COc1cc(-c2cc(F)cc(C(C)C)c2NC(=O)NS2(=O)=NC(=O)c3sccc32)ccn1 (stereo not drawn) [Example 17]
> 6.00

pIC50 lookup needed for O=C(Nc1c2c(cc3c1CCC3)CCC2)NS1(=O)=NC(=O)c2ccncc21 (single isomer, unassigned) [Example 38] , thanks.
5.00 to 6.00

Fill in: pIC50 of O=C(Nc1c2c(cc3c1CCC3)CCC2)NS1(=O)=NC(=O)c2cc(Br)ccc21 (single isomer, unassigned) [Example 58] is ___
5.00 to 6.00

Field request: pIC50 | item: O=C(Nc1c2c(cc3c1CCC3)CCC2)NS1(=O)=NC(=O)c2c(F)cccc21 (single isomer, unassigned) [Example 61]
5.00 to 6.00

What value of pIC50 has been recorded for this entry: O=C(Nc1c2c(cc3c1CCC3)CCC2)NS1(=O)=NC(=O)c2ccncc21 (stereo not drawn) [Example 7]
5.00 to 6.00

Sample N#Cc1ccc2c(c1)C(=O)N=S2(=O)NC(=O)Nc1c2c(cc3c1CCC3)CCC2 (stereo not drawn) — what was its pIC50?
5.00 to 6.00

I have this molecule here, CC(C)(O)c1ccc2c(c1)S(=O)(=NC(=O)Nc1c3c(cc4c1CCC4)CCC3)NC2=O (stereo not drawn) [Example 30] , and I need its recorded pIC50.
> 6.00

So what does the record say about pIC50 for O=C(Nc1c2c(cc3c1CCC3)CCC2)NS1(=O)=NC(=O)c2nc(Cl)ccc21 (single isomer, unassigned) ?
> 6.00

pIC50 for COc1cc(-c2cc(F)cc(C(C)C)c2NC(=O)NS2(=O)=NC(=O)c3sccc32)ccn1 (single isomer, unassigned) [Example 51] ?
> 6.00

* * *

# study_target: NLRP3 inflammasome (Homo sapiens, UniProt Q96P20)
# method_description: NLRP3 inflammasome activation assay, IL-1 beta release, human monocyte-like cells, Nigericin stimulation
# Format: cell-based
# Set-up: endogenous in cells
# particulars: PMA-differentiated, LPS-primed human monocyte-like cells; Nigericin 3.75 μM 3 h; IL-1β by AlphaLISA
pIC50: −log10 of the molar value.
endpoint_label: pIC50

Short answer please: pIC50, NLRP3 inflammasome (Homo sapiens, UniProt Q96P20), entry Cc1cccc2c1C(=O)N=S2(=O)NC(=O)Nc1c2c(cc3c1CCC3)CCC2 (single isomer, unassigned) [Example 46]
5.00 to 6.00

Find the measured pIC50: item O=C(N=S1(=O)NC(=O)c2ccc(Br)cc21)Nc1c2c(cc3c1CCC3)CCC2 (single isomer, unassigned) [Example 60] , target or system NLRP3 inflammasome (Homo sapiens, UniProt Q96P20).
> 6.00

Form field: pIC50 recorded for O=C(Nc1c2c(cc3c1CCC3)CCC2)NS1(=O)=NC(=O)c2sccc21 (single isomer, unassigned) [Example 35] with NLRP3 inflammasome (Homo sapiens, UniProt Q96P20) (enter value)
5.00 to 6.00

# returns recorded pIC50 (system: NLRP3 inflammasome (Homo sapiens, UniProt Q96P20)) for O=C(Nc1c2c(cc3c1CCC3)CCC2)NS1(=O)=NC(=O)c2cc(F)ccc21 (stereo not shown) [Example 26]
5.00 to 6.00

Give recorded pIC50 with NLRP3 inflammasome (Homo sapiens, UniProt Q96P20) for the following compound: O=C(Nc1c2c(cc3c1CCC3)CCC2)NS1(=O)=NC(=O)c2cc(F)ccc21 (single isomer, unassigned) [Example 62]
> 6.00

Please state recorded pIC50 (tested on NLRP3 inflammasome (Homo sapiens, UniProt Q96P20)) of CC(C)(O)c1ccc2c(c1)S(=O)(=NC(=O)Nc1c3c(cc4c1CCC4)CCC3)NC2=O (single isomer, unassigned) [Example 40]
5.00 to 6.00

I'm curious: which pIC50 was measured for COC(=O)c1ccc2c(c1)S(=O)(=NC(=O)Nc1c3c(cc4c1CCC4)CCC3)NC2=O (stereo not shown) tested on NLRP3 inflammasome (Homo sapiens, UniProt Q96P20)?
5.00 to 6.00

* * *

Please respond with reported pIC50 for every item in the list.
# study_target: NLRP3 inflammasome (Homo sapiens)
# method_description: NLRP3 inflammasome activation assay, IL-1 beta release, human monocyte-like cells, MSU stimulation
# Type: cell-based
# Parameters: endogenous in cells
# particulars: PMA-differentiated, LPS-primed human monocyte-like cells; MSU 150 μg/ml 3 h; IL-1β by AlphaLISA
pIC50: −log10 of the molar value.

Which pIC50 value belongs to COC(=O)c1ccc2c(c1)S(=O)(=NC(=O)Nc1c3c(cc4c1CCC4)CCC3)NC2=O (stereo not shown) [Example 9] ?
5.00 to 6.00

// query pIC50 value for entry O=C(Nc1c2c(cc3c1CCC3)CCC2)NS1(=O)=NC(=O)c2ncccc21 (single isomer, unassigned) [Example 39]
5.00 to 6.00

Field request: pIC50 | item: O=C(Nc1c2c(cc3c1CCC3)CCC2)NS1(=O)=NC(=O)c2c(Cl)cccc21 (single isomer, unassigned) [Example 43]
> 6.00

Which pIC50 is reported for this molecule? O=C(N=S1(=O)NC(=O)c2ccccc21)Nc1c2c(cc3c1CCC3)CCC2 (single isomer, unassigned) [Example 1b]
> 6.00

Could you share which pIC50 value was measured for O=C(N=S1(=O)NC(=O)c2ccccc21)Nc1c2c(cc3c1CCC3)CCC2 (racemic) [Example 1] ?
> 6.00

Consider the molecule shown here: COc1cc(-c2cc(F)cc(C(C)C)c2NC(=O)NS2(=O)=NC(=O)c3sccc32)ccn1 (single isomer, unassigned) [Example 50] What is its recorded pIC50?
5.00 to 6.00

If you can, please state the reported pIC50 value of O=C(Nc1c2c(cc3c1CCC3)CCC2)NS1(=O)=NC(=O)c2ccncc21 (stereo not shown) [Example 7] .
> 6.00

* * *

# study_target: NLRP3 inflammasome (Homo sapiens)
# method_description: NLRP3 inflammasome activation assay, IL-1 beta release, human monocyte-like cells, MSU stimulation
# Type: cell-based
# Set-up: endogenous in cells
# particulars: PMA-differentiated, LPS-primed human monocyte-like cells; MSU 150 μg/ml 3 h; IL-1β by AlphaLISA
Answer each item with its documented IC50.

Find IC50 (NLRP3 inflammasome (Homo sapiens)) for the entry O=C(Nc1c2c(cc3c1CCC3)CCC2)NS1(=O)=NC(=O)c2nc(Cl)ccc21 (single isomer, unassigned) [Example 64]
< 1000 nM

Give recorded IC50 with NLRP3 inflammasome (Homo sapiens) for the following molecule: O=C(Nc1cc2c(c3c1CCC3)CCC2)NS1(=O)=NC(=O)c2ccccc21 (centres unmarked) [Example 6]
1000 to 10000 nM

Request body: readout IC50, system NLRP3 inflammasome (Homo sapiens), query CC(C)(O)c1ccc2c(c1)S(=O)(=NC(=O)Nc1c3c(cc4c1CCC4)CCC3)NC2=O (centres unmarked) [Example 30] . Return the value.
< 1000 nM

Given the entry O=C(Nc1c2c(cc3c1CCC3)CCC2)NS1(=O)=NC(=O)c2cc(Cl)ccc21 (centres unmarked) [Example 12] , what IC50 was observed with NLRP3 inflammasome (Homo sapiens)?
1000 to 10000 nM

Fill in the recorded IC50 for this molecule, with NLRP3 inflammasome (Homo sapiens) as test system: Cc1cccc2c1C(=O)N=S2(=O)NC(=O)Nc1c2c(cc3c1CCC3)CCC2 (single isomer, unassigned) [Example 46]
< 1000 nM

Item: O=C(Nc1c2c(cc3c1CCC3)CCC2)NS1(=O)=NC(=O)c2c(F)cccc21 (centres unmarked) [Example 25] Test system: NLRP3 inflammasome (Homo sapiens) Read-out: IC50 Value: ?
< 1000 nM

Given the entry COc1cc(-c2ccc3c(c2NC(=O)NS2(=O)=NC(=O)c4sccc42)CCC3)ccn1 (single isomer, unassigned) [Example 52] , what IC50 was observed with NLRP3 inflammasome (Homo sapiens)?
1000 to 10000 nM

Param readout = IC50; param system = NLRP3 inflammasome (Homo sapiens); param query = O=C(Nc1c2c(cc3c1CCC3)CCC2)NS1(=O)=NC(=O)c2cc(F)ccc21 (single isomer, unassigned) [Example 62] ; response: value
< 1000 nM

What measured IC50 is associated with N#Cc1ccc2c(c1)C(=O)N=S2(=O)NC(=O)Nc1c2c(cc3c1CCC3)CCC2 (centres unmarked) [Example 10] on NLRP3 inflammasome (Homo sapiens)?
< 1000 nM

NLRP3 inflammasome (Homo sapiens) / IC50 / O=C(Nc1c2c(cc3c1CCC3)CCC2)NS1(=O)=NC(=O)c2c(Cl)cccc21 (centres unmarked) [Example 11] : value?
< 1000 nM

Could you share what IC50 was measured for O=C(Nc1c2c(cc3c1CCC3)CCC2)NS1(=O)=NC(=O)c2cc(F)ccc21 (centres unmarked) [Example 26] , tested on NLRP3 inflammasome (Homo sapiens)?
< 1000 nM

NLRP3 inflammasome (Homo sapiens) / IC50 / O=C(Nc1c2c(cc3c1CCC3)CCC2)NS1(=O)=NC(=O)c2cc(Br)ccc21 (single isomer, unassigned) [Example 59] : value?
1000 to 10000 nM

Item O=C(Nc1c2c(cc3c1CCC3)CCC2)NS1(=O)=NC(=O)c2ncccc21 (centres unmarked) [Example 8] with NLRP3 inflammasome (Homo sapiens) - IC50?
1000 to 10000 nM

What is its IC50 for NLRP3 inflammasome (Homo sapiens)? Entry: O=C(Nc1c2c(cc3c1CCC3)CCC2)NS1(=O)=NC(=O)c2cc(Br)ccc21 (single isomer, unassigned) [Example 58]
< 1000 nM

Can you look up IC50 on NLRP3 inflammasome (Homo sapiens) for O=C(Nc1c2c(cc3c1CCC3)CCC2)NS1(=O)=NC(=O)c2ccc(F)cc21 (single isomer, unassigned) [Example 63] ?
< 1000 nM

Record COc1cc(-c2cc(F)cc(C(C)C)c2NC(=O)NS2(=O)=NC(=O)c3sccc32)ccn1 (single isomer, unassigned) [Example 51] : what is its IC50 with NLRP3 inflammasome (Homo sapiens)?
< 1000 nM

Reported IC50 for NLRP3 inflammasome (Homo sapiens), given O=C(Nc1c2c(cc3c1CCC3)CCC2)NS1(=O)=NC(=O)c2ccc(F)cc21 (centres unmarked) [Example 28] ?
< 1000 nM

Record lookup: for NLRP3 inflammasome (Homo sapiens), what IC50 belongs to Cc1cccc2c1C(=O)N=S2(=O)NC(=O)Nc1c2c(cc3c1CCC3)CCC2 (centres unmarked) [Example 14] ?
< 1000 nM

Requested read-out IC50, target or system NLRP3 inflammasome (Homo sapiens), entry CC(C)(O)c1ccc2c(c1)S(=O)(=NC(=O)Nc1c3c(cc4c1CCC4)CCC3)NC2=O (single isomer, unassigned) [Example 41]
< 1000 nM

Test system NLRP3 inflammasome (Homo sapiens); read-out IC50; what value for O=C(N=S1(=O)NC(=O)c2cccnc21)Nc1c2c(cc3c1CCC3)CCC2 (single isomer, unassigned) [Example 32] ?
< 1000 nM

Observed IC50 on NLRP3 inflammasome (Homo sapiens) for O=C(N=S1(=O)NC(=O)c2ccc(Br)cc21)Nc1c2c(cc3c1CCC3)CCC2 (centres unmarked) [Example 24] , please.
< 1000 nM

What measured IC50 is associated with O=C(Nc1c2c(cc3c1CCC3)CCC2)NS1(=O)=NC(=O)c2ccccc2C1 (centres unmarked) [Example 3] on NLRP3 inflammasome (Homo sapiens)?
< 1000 nM

API: value(readout= IC50, system= NLRP3 inflammasome (Homo sapiens), query= COc1ccc2c(c1)S(=O)(NC(=O)Nc1c3c(cc4c1CCC4)CCC3)=NC2=O (centres unmarked) [Example 15] )
< 1000 nM

What IC50 appears in the records for this molecule with NLRP3 inflammasome (Homo sapiens)? O=C(Nc1c2c(cc3c1CCC3)CCC2)NS1(=O)=NC(=O)c2ccncc21 (single isomer, unassigned) [Example 38]
< 1000 nM

Tell me reported IC50 for O=C(Nc1c2c(c(F)c3c1CCC3)CCC2)NS1(=O)=NC(=O)c2sccc21 (single isomer, unassigned) [Example 54] , tested with NLRP3 inflammasome (Homo sapiens).
< 1000 nM

What IC50 appears in the records for this molecule with NLRP3 inflammasome (Homo sapiens)? O=C(Nc1c2c(c(F)c3c1CCC3)CCC2)NS1(=O)=NC(=O)c2sccc21 (single isomer, unassigned) [Example 55]
< 1000 nM

Field: IC50 (NLRP3 inflammasome (Homo sapiens)). Entry: O=C(Nc1c2c(cc3c1CCC3)CCC2)NS1(=O)=NC(=O)c2c(F)cccc21 (single isomer, unassigned) [Example 61]
< 1000 nM

Look up IC50 with NLRP3 inflammasome (Homo sapiens) for this molecule: COc1cc(-c2cc(F)cc(C(C)C)c2NC(=O)NS2(=O)=NC(=O)c3sccc32)ccn1 (centres unmarked) [Example 17]
< 1000 nM

Write down the reported IC50 of CC(C)(O)c1ccc2c(c1)S(=O)(=NC(=O)Nc1c3c(cc4c1CCC4)CCC3)NC2=O (single isomer, unassigned) [Example 40] , test system: NLRP3 inflammasome (Homo sapiens).
< 1000 nM

The measured values listed here are drawn from patent US20220378801A1.
